Below: a set of entries, each annotated with reported Release.
biological target: Gastrin-releasing peptide receptor (Rattus norvegicus); assay: Tested for the inhibition of Bombesin-stimulated amylase release at 5 uM concentration in rat pranceatic acini; type: functional
Write the number in % without appending the unit.

Look over these answered cases.
Lab book: Release of CSCC[C@H](NC[C@H](CC(C)C)NC(=O)[C@H](Cc1c[nH]cn1)NC(=O)CNC(=O)[C@@H](NC(=O)[C@H](C)NC(=O)[C@H](Cc1c[nH]c2ccccc12)NC(=O)[C@H](N)Cc1ccccc1)C(C)C)C(N)=O noted as 5.7

Lab book: Release of CSCC[C@@H](C(N)=O)N(C=O)C[C@H](CC(C)C)NC(=O)[C@H](Cc1c[nH]cn1)NC(=O)CNC(=O)[C@@H](NC(=O)[C@H](C)NC(=O)[C@H](Cc1c[nH]c2ccccc12)NC(=O)[C@H](Cc1c[nH]cn1)NC(=O)[C@H](CC(N)=O)NC(=O)CN)C(C)C noted as 9.2

Lab book: Release of CN[C@@H](Cc1ccccc1)C(=O)N[C@@H](Cc1c[nH]cn1)C(=O)N[C@@H](Cc1c[nH]c2ccccc12)C(=O)N[C@@H](C)C(=O)N[C@H](C(=O)NCC(=O)N[C@@H](Cc1c[nH]cn1)C(=O)N[C@@H](CC(C)C)CN(C=O)[C@@H](CCSC)C(N)=O)C(C)C noted as 9

Please look at the following molecule next.
Lab book: Release of CC(C)C[C@@H](CN[C@@H](CC(C)C)C(N)=O)NC(=O)[C@H](Cc1c[nH]cn1)NC(=O)CNC(=O)[C@@H](NC(=O)[C@H](C)NC(=O)[C@H](Cc1c[nH]c2ccccc12)NC(=O)[C@H](CCC(N)=O)NC(=O)[C@H](CC(N)=O)NC(=O)CNC(=O)[C@H](CC(C)C)NC(=O)[C@H](CCCN=C(N)N)NC(=O)[C@H](CCC(N)=O)NC(=O)[C@@H]1CCC(=O)N1)C(C)C noted as 2.7
